- Target Under Test: DNA-PK (Homo sapiens, UniProt P78527)
- Construct: purchased Invitrogen PR9107A
- Assay Details: DNA-PK Assay for Biochemical Enzymatic Inhibition (ADP Glo Kinase assay)
- Details: Table 1
The reader will find reported IC50 values listed item by item below.

# Molecule, Target Under Test, IC50
rows = [
    ("Oc1cnc(N[C@H]2CC[C@@H](Oc3nc(N4CCOCC4)cc4ncccc34)CC2)nc1", "DNA-PK (Homo sapiens, UniProt P78527)", "0.5 to 1 nM"),
    ("c1cnc2cc(N3CCOCC3)nc(O[C@H]3CC[C@@H](Nc4ccc5nccn5n4)CC3)c2c1", "DNA-PK (Homo sapiens, UniProt P78527)", "0.5 to 1 nM"),
    ("O=C(N[C@H]1CC[C@@H](Oc2nc(N3CCOCC3)cc3ncccc23)CC1)c1ccccn1", "DNA-PK (Homo sapiens, UniProt P78527)", "0.5 to 1 nM"),
    ("CN(C)C(=O)c1cnc(N[C@H]2CC[C@@H](Oc3nc(N4CCOCC4)cc4ncccc34)CC2)nc1", "DNA-PK (Homo sapiens, UniProt P78527)", "0.5 to 1 nM"),
    ("O=C(N[C@H]1CC[C@@H](Oc2nc(N3CCOCC3)cc3ncccc23)CC1)c1ccc[nH]1", "DNA-PK (Homo sapiens, UniProt P78527)", "0.5 to 1 nM"),
]

Ask | Query: IC50; subject: "O=C(N[C@H]1CC[C@@H](Oc2nc(N3CCOCC3)cc3ncccc23)CC1)c1ccc(F)cc1"
Reply | < 0.5 nM

Ask | Look up IC50: "O=C(N[C@H]1CC[C@@H](Oc2nc(N3CCOCC3)cc3ncccc23)CC1)C1(O)CC1"
Reply | 1 to 10 nM

Ask | Data request, read-out IC50, for "O=C(N[C@H]1CC[C@@H](Oc2nc(N3CCOCC3)cc3ncccc23)CC1)c1ncc[nH]1"
Reply | < 0.5 nM

* * *

- Assay Details: Pharmacokinetic study in rats (IV, PO)
- Format: in vivo, Sprague-Dawley rats
- Details: male, Sprague-Dawley; Table B; Rat Plasma; PO; 30 mg/kg; read-out: AUCINF—obs
Endpoint: AUC(0-inf) (ng·h/mL)
Kindly provide the numeric value in ng·h/mL only, without the unit symbol.

Ask | Quick check: AUC(0-inf) of O=C(N[C@H]1CC[C@@H](Oc2nc(N3CCOCC3)cc3ncccc23)CC1)c1ncccn1 [Compound 123] ?
Reply | 11500

* * *

- Assay Details: Hepatocyte stability assay, mouse hepatocytes
- Type: in vitro ADME
- Details: 120 min
Endpoint: Hepatocyte Stability (mouse) % rem. 120 min

Check out these entries, answers already filled in.
# Smiles Data, Value Reported
rows = [
    ("NS(=O)(=O)c1cnc(N[C@H]2CC[C@@H](Oc3nc(N4CCOCC4)cc4ncccc34)CC2)nc1", "G (% remaining = 50-75%)"),
    ("Cn1ccc2nc(N[C@H]3CC[C@@H](Oc4nc(N5CCOCC5)cc5ncccc45)CC3)ncc21", "F (% remaining = 25-50%)"),
    ("O=C(N[C@H]1CC[C@@H](Oc2nc(N3CCOCC3)cc3ncccc23)CC1)c1cccnc1", "F (% remaining = 25-50%)"),
    ("Cc1ccnc(N[C@H]2CC[C@@H](Oc3nc(N4CCOCC4)cc4ncccc34)CC2)n1", "F (% remaining = 25-50%)"),
    ("COc1ccc(N[C@H]2CC[C@@H](Oc3nc(N4CCOCC4)cc4ncccc34)CC2)nn1", "F (% remaining = 25-50%)"),
    ("CS(=O)(=O)Nc1cnc(N[C@H]2CC[C@@H](Oc3nc(N4CCOCC4)cc4ncccc34)CC2)nc1", "G (% remaining = 50-75%)"),
]

Ask | Form field: reported Hepatocyte Stability (mouse) % rem. 120 min of "O=C(N[C@H]1CC[C@@H](Oc2nc(N3CCOCC3)cc3ncccc23)CC1)c1ncccn1"
Reply | G (% remaining = 50-75%)

* * *

- Target Under Test: pDNA-PK ser2056 induction in HCT116 spheroids (Homo sapiens, UniProt P78527)
- Construct: endogenous in cells; host or cells: HCT116 multicellular tumour spheroids
- Assay Details: Multicellular tumour spheroid + radiation, pDNA-PK inhibition, HCT116
- Format: cell-based
- Details: Example 9 Study 2; 20 Gy; 20% O2; read-out: Spheroid Cell line: HCT116 Immunohistochemical endpoint pDNA-PK inhibition EC50
pEC50: −log10 of the molar value.
Endpoint: pEC50

These recorded examples may help you get a feel for the data.
# Molecule, pEC50
measured = [
    ("c1cnc2cc(N3CCOCC3)nc(O[C@H]3CC[C@@H](Nc4cncnc4)CC3)c2c1", "5.00 to 6.00"),
    ("O=C(N[C@H]1CC[C@@H](Oc2nc(N3CCOCC3)cc3ncccc23)CC1)c1cc[nH]c1", "6.30 to 8.00"),
    ("c1cnc2cc(N3CCOCC3)nc(O[C@H]3CC[C@@H](n4ncnn4)CC3)c2c1 [Compound 17m]", "5.00 to 6.00"),
    ("N#Cc1cnc2cc(N3CCOCC3)nc(O[C@H]3CC[C@@H](Nc4ncccn4)CC3)c2c1 [Compound 200a]", "5.00 to 6.00"),
]

Ask | Which pEC50 is reported for this molecule? "CS(=O)(=O)Nc1cnc2cc(N3CCOCC3)nc(O[C@H]3CC[C@@H](Nc4ncccn4)CC3)c2c1"
Reply | 6.30 to 8.00

Ask | Given "O=C(N[C@H]1CC[C@@H](Oc2nc(N3CCOCC3)cc3ncccc23)CC1)c1c[nH]cn1" , state its recorded pEC50.
Reply | 5.00 to 6.00

Ask | Value lookup for pEC50; key = "FC(F)Oc1cnc(N[C@H]2CC[C@@H](Oc3nc(N4CCOCC4)cc4ncccc34)CC2)nc1"
Reply | 5.00 to 6.00

Ask | Look up pEC50: Fc1cn([C@H]2CC[C@@H](Oc3nc(N4CCOCC4)cc4ncccc34)CC2)cn1 [Compound 17a]
Reply | 5.00 to 6.00

Ask | Entry "FC(F)c1ccc2c(O[C@H]3CC[C@@H](Nc4ncccn4)CC3)nc(N3CCOCC3)cc2n1" has what pEC50?
Reply | 4.00 to 5.00

Ask | // lookup pEC50 for "c1cnc2cc(N3CCOCC3)nc(O[C@H]3CC[C@@H](Nc4ccc5nccn5n4)CC3)c2c1"
Reply | 5.00 to 6.00

Ask | I am curious: what pEC50 value has been reported for "CC(C)c1cnc(N[C@H]2CC[C@@H](Oc3nc(N4CCOCC4)cc4ncccc34)CC2)nc1" ?
Reply | 5.00 to 6.00

Ask | // lookup pEC50 for "O=C(N[C@H]1CC[C@@H](Oc2nc(N3CCOCC3)cc3ncccc23)CC1)C1CC1"
Reply | 5.00 to 6.00

Ask | Find the recorded pEC50 belonging to "COc1ccnc(C(=O)N[C@H]2CC[C@@H](Oc3nc(N4CCOCC4)cc4ncccc34)CC2)n1" and report it.
Reply | 5.00 to 6.00

Ask | pEC50 for "COc1ccc(N[C@H]2CC[C@@H](Oc3nc(N4CCOCC4)cc4ncccc34)CC2)nn1" ?
Reply | 5.00 to 6.00

Ask | Entry "O=C(N[C@H]1CC[C@@H](Oc2nc(N3CCOCC3)cc3ncccc23)CC1)c1ccc(C(F)(F)F)o1" : reported pEC50 = ?
Reply | 5.00 to 6.00

Ask | Recorded pEC50 for COc1cnc(N[C@H]2CC[C@@H](Oc3nc(N4CCOCC4)cc4ncccc34)CC2)nc1 [Compound 20c] , please?
Reply | 6.00 to 6.30

* * *

Known microsomal CLint at 0.1 uM of a selection of compounds
- Assay Details: Microsomal stability assay, mouse liver microsomes
- Details: male, CD-1, mouse, liver microsomes, pH 7.4, Microsomal Stability Mouse Clint, 0.1 mg/mL microsomes; 0.1 uM compound

# Compound, microsomal CLint at 0.1 uM
rows = [
    ("O=C(N[C@H]1CC[C@@H](Oc2nc(N3CCOCC3)cc3ncccc23)CC1)c1ncco1", "< 116 µL/min/mg"),
    ("FC(F)(F)c1cnc(N[C@H]2CC[C@@H](Oc3nc(N4CCOCC4)cc4ncccc34)CC2)nc1", "> 116 µL/min/mg"),
    ("O=C(N[C@H]1CC[C@@H](Oc2nc(N3CCOCC3)cc3ncccc23)CC1)c1ccco1", "> 116 µL/min/mg"),
    ("c1cncc(N[C@H]2CC[C@@H](Oc3nc(N4CCOCC4)cc4ncccc34)CC2)c1", "> 116 µL/min/mg"),
    ("O=C(N[C@H]1CC[C@@H](Oc2nc(N3CCOCC3)cc3ncccc23)CC1)c1scnc1Cl", "< 116 µL/min/mg"),
    ("c1cnc2cc(N3CCOCC3)nc(O[C@H]3CC[C@@H](n4cnnn4)CC3)c2c1 [Compound 17l]", "> 116 µL/min/mg"),
    ("O=C(N[C@H]1CC[C@@H](Oc2nc(N3CCOCC3)cc3ncccc23)CC1)c1c[nH]cn1", "< 116 µL/min/mg"),
    ("O=C(N[C@H]1CC[C@@H](Oc2nc(N3CCOCC3)cc3ncccc23)CC1)c1ccc(C(F)(F)F)o1", "> 116 µL/min/mg"),
    ("Cc1cnc(N[C@H]2CC[C@@H](Oc3nc(N4CCOCC4)cc4ncccc34)CC2)nc1", "> 116 µL/min/mg"),
    ("O=C(N[C@H]1CC[C@@H](Oc2nc(N3CCOCC3)cc3ncccc23)CC1)c1ccncc1", "> 116 µL/min/mg"),
]

Ask | Tell me the measured microsomal CLint at 0.1 uM of "COc1ccc(C(=O)N[C@H]2CC[C@@H](Oc3nc(N4CCOCC4)cc4ncccc34)CC2)cc1" , please.
Reply | > 116 µL/min/mg

Ask | Which measured microsomal CLint at 0.1 uM value corresponds to "c1cnc2cc(N3CCOCC3)nc(O[C@H]3CC[C@@H](Nc4cncnc4)CC3)c2c1" ?
Reply | > 116 µL/min/mg

Ask | Requested read-out: microsomal CLint at 0.1 uM. Entry: Brc1cnc2cc(N3CCOCC3)nc(O[C@H]3CC[C@@H](Nc4ncccn4)CC3)c2c1 [Compound 18a]
Reply | > 116 µL/min/mg

Ask | For the compound shown here, "CS(=O)(=O)Nc1cnc2cc(N3CCOCC3)nc(O[C@H]3CC[C@@H](Nc4ncccn4)CC3)c2c1" , give the reported microsomal CLint at 0.1 uM.
Reply | < 116 µL/min/mg

Ask | Any idea what microsomal CLint at 0.1 uM was measured for "c1cnc2cc(N3CCOCC3)nc(O[C@H]3CC[C@@H](Nc4cnccn4)CC3)c2c1" ?
Reply | > 116 µL/min/mg

Hey, just so you know, these numbers are from patent US20240246960A1.
